assayed-target: T1, human CD96v2 expressed on cells (CHO cells; transiently transfected HEK cells) (human, UniProt P40200-2 22-569)
T1 construct: whole, on cells; the cell is named under assay; also called CHO-huCD96; hCD96v2
T1 sequence (looked up): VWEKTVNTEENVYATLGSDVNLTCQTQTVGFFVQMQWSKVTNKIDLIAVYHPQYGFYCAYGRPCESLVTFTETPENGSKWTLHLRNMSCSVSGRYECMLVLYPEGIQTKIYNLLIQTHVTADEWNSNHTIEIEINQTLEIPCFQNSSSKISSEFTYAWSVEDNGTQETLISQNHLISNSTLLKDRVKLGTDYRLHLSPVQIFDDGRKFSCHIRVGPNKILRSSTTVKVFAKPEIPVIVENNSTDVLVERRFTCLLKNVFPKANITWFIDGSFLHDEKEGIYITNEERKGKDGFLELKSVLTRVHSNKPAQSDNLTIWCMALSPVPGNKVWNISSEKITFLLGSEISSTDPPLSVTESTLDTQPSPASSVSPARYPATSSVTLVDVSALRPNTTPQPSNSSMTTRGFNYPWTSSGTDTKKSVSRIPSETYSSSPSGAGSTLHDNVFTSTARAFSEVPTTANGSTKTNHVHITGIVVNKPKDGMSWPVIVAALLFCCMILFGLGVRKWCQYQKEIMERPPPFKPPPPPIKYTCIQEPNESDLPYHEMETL
test-summary: flow cytometry on CHO cells expressing human CD96v2
Listed next: entries and their corresponding EC50.
Kindly answer with a numeric value in nM, unit omitted.

Known EC50 results, listed for orientation:
42Y073-1A01-97 (antibody, V domains shown, Fully human antibody) VH: QVQLVQSGAEVKKPGASVKVSCKASGYTFTRAAMHWVRQAPGQGLEWMGIINPAGGYTSYAQKFQGRVTMTRDTSTSTVYMELSSLRSEDTAVYYCARETAYYTTKGNWFDPWGQGTLVTVSS VL: DIQMTQSPSSLSASVGDRVTITCRASQSISSYLNWYQQKPGKAPKLLIYAASSLQSGVPSRFSGSGSGTDFTLTISSLQPEDFATYYCQQSLYPPRTFGGGTKVEIK | 0.77
42Y073-86F08-22 (antibody, V domains shown, Fully human antibody) VH: QVQLVQSGAEVKKPGASVKVSCKASGYTFDSYAMHWVRQAPGQGLEWMGGIIPIFGTAWYAQKFQGRVTITADESTSTAYMELSSLRSEDTAVYYCARGAGYYGDKDPMDVWGQGTTVTVSS VL: DIQLTQSPSSLSASVGDRVTITCRASQSISSYLNWYQQKPGKAPKLLIYAASSLQSGVPSRFSGSGSGTDFTLTISSLQPEDFATYYCQQVLHTITFGGGTKVEIK | 0.03
42Y073-1A01-191 (antibody, V domains shown, Fully human antibody) VH: QVQLVQSGAEVKKPGASVKVSCKASGYTFTKYRMHWVRQAPGQGLEWMGIINPQGGSTSYAQKFQGRVTMTRDTSTSTVYMELSSLRSEDTAVYYCARETAYYTTKGNWFDPWGQGTLVTVSA VL: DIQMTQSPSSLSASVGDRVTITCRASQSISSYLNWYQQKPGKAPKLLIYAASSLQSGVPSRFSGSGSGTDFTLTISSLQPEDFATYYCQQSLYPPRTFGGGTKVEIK | 0.01

Which EC50 value belongs to 42Y073-86F08-1 (antibody, V domains shown) VH: QVQLVQSGAEVKKPGSSVKVSCKASGGTFSSYAISWVRQAPGQGLEWMGGIIPIFGTASYAQKFQGRVTITADESTSTAYMELSSLRSEDTAVYYCARGAGYYGDKDPMDVWGQGTTVTVSS VL: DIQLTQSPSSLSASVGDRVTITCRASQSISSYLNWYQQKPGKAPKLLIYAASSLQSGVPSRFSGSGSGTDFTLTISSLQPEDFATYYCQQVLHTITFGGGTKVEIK ? 0.07

Fill in the blank: the reported EC50 of 42Y073-86F04-18 (antibody, V domains shown, Fully human antibody) VH: QVQLVQSGAEVKKPGSSVKVSCKASGGTFSSRAISWVRQAPGQGLEWMGGIIPIMGTARYAQKFQGRVTITADESTSTAYMELSSLRSEDTAVYYCARLLGESGMDVWGQGTTVTVSS VL: DIQMTQSPSSLSASVGDRVTITCRASQSISSYLNWYQQKPGKAPKLLIYAASSLQSGVPSRFSGSGSGTDFTLTISSLQPEDFATYYCQQPYFSPPTFGGGTKVEIK is ____. 0.07
